# credit: the MegaScale stability set (Tsuboyama et al. 2023)

B1: r4_43_TrROS_Hall (parent)
chain: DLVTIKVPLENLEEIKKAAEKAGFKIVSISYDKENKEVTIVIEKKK

Variants of: B1
Run Description: folding stability dG (cDNA display proteolysis); higher = more stable
Experimental Setup: PBS, room temperature
Endpoint Label: folding stability dG (kJ/mol)

# Mutant Label, Endpoint Label, Assay Value
data = [
    ("K16Q", "folding stability dG", 14.9),
    ("Y31F", "folding stability dG", 13.8),
    ("K17W", "folding stability dG", 17.6),
    ("K16A", "folding stability dG", 15.7),
    ("V7H", "folding stability dG", 13),
]
